Experiment: Toxicity liver stage against HepG2, at 10uM
Assay type: cell-based
Parameters: test concentration 10 uM, cell line HepG2-A16-CD81EGFP
Conditions: human, HepG2-A16-CD81EGFP cells; read-out: INHIBITION
valueKind: cytotoxicity at 10 µM (%)
State the answer as a number, implicitly in %.

Use these answered entries as a reference point.
>  <molecule>
COCC(=O)N1CCN(C(=O)CCc2ccsc2)CC1

>  <cytotoxicity at 10 µM, %>
-17

$$$$
>  <molecule>
Cc1cc(CNC(=O)N2CCN(C(C)c3cccnc3)CC2)c(C)o1 (stereo unspecified)

>  <cytotoxicity at 10 µM, %>
-8.54

$$$$
>  <molecule>
Cc1csc(C2CCCN(C(=O)c3c[nH]c(C)n3)C2)n1 (stereo unspecified)

>  <cytotoxicity at 10 µM, %>
-17

$$$$
>  <molecule>
CC(C)n1cc(C(=O)NCCCc2csc(N)n2)cn1

>  <cytotoxicity at 10 µM, %>
-4.36

$$$$

Recall and state the measured cytotoxicity at 10 µM for O=S(=O)(C1CC1)N1CCC2(CCN(Cc3nccs3)CC2)CC1 .
7.67

Give the value of cytotoxicity at 10 µM reported for the following: CN1CCCCC1c1ncc2c(n1)CCN(Cc1ccc(Cl)c(F)c1)C2 (stereo unspecified)
-27.7

Cited source for all entries: ChEMBL document CHEMBL4513216
